- assay explanation: in vivo
- condition set: both, Kunming, mouse, po

molecule: COc1ccc(/C=C\c2cc(OC)c(OC)c(OC)c2)cc1O [CA4, combretastatin A-4, reference compound]
display unit: mg/kg
LD50: 1280

----------
- Test system: human lung cancer cell A549
- assay explanation: In vitro antitumor activity on tumor cell lines (CCK-8 method), A549
- Type: cell-based
- condition set: Homo sapiens, A549, 72 hours
Listing of entries alongside the reported IC50.

compound: COc1ccc(C=Cc2cc(OC)c(OC)c(OC)c2)cc1NC(=O)CCn1cc(F)c(=O)[nH]c1=O [Compound Ic]
IC50: 57.9 µM
--
compound: CCOc1ccc(CCc2cc(OC)c(OC)c(OC)c2)cc1NC(=O)CCn1cc(F)c(=O)[nH]c1=O [Compound Ih]
IC50: 15.2 µM
--
compound: COc1ccc(/C=C\c2cc(OC)c(OC)c(OC)c2)cc1O [CA4, combretastatin A-4, reference compound]
IC50: 0.00254 µM
--
compound: COc1ccc(/C=C\c2cc(OC)c(OC)c(OC)c2)cc1NC(=O)Cn1cc(F)c(=O)[nH]c1=O [Compound Ia]
IC50: 27.5 µM

----------
- System: human gastric cancer cell MGC-803
- assay explanation: In vitro antitumor activity on tumor cell lines (CCK-8 method), MGC-803
- Format: cell-based
- condition set: Homo sapiens, MGC-803, 72 hours
quantity: IC50 (µM)

compound: COc1ccc(CCc2cc(OC)c(OC)c(OC)c2)cc1OC(=O)CCn1cc(F)c(=O)[nH]c1=O [Compound Il]
quantity: IC50
relation qualifier: <
observed value: 0.0003
--
compound: O=c1[nH]cc(F)c(=O)[nH]1 [Compound 5-FU, 5-fluorouracil, reference compound]
quantity: IC50
relation qualifier: =
observed value: 62.5
--
compound: COc1ccc(/C=C\c2cc(OC)c(OC)c(OC)c2)cc1O [CA4, combretastatin A-4, reference compound]
quantity: IC50
relation qualifier: =
observed value: 0.0206
--
compound: CCOc1ccc(CCc2cc(OC)c(OC)c(OC)c2)cc1OC(=O)Cn1cc(F)c(=O)[nH]c1=O [Compound In]
quantity: IC50
relation qualifier: =
observed value: 19.3
--
compound: COc1ccc(CCc2cc(OC)c(OC)c(OC)c2)cc1NC(=O)Cn1cc(F)c(=O)[nH]c1=O [Compound Ib]
quantity: IC50
relation qualifier: =
observed value: 1.86
--
compound: CCOc1ccc(CCc2cc(OC)c(OC)c(OC)c2)cc1NC(=O)Cn1cc(F)c(=O)[nH]c1=O [Compound Ig]
quantity: IC50
relation qualifier: =
observed value: 25.8
--
compound: COc1ccc(C=Cc2cc(OC)c(OC)c(OC)c2)cc1NC(=O)CCn1cc(F)c(=O)[nH]c1=O [Compound Ic]
quantity: IC50
relation qualifier: =
observed value: 48.5
--
compound: COc1ccc(/C=C\c2cc(OC)c(OC)c(OC)c2)cc1OC(=O)CCn1cc(F)c(=O)[nH]c1=O [Compound Ik]
quantity: IC50
relation qualifier: <
observed value: 0.0003
--
compound: CCOc1ccc(CCc2cc(OC)c(OC)c(OC)c2)cc1NC(=O)CCn1cc(F)c(=O)[nH]c1=O [Compound Ih]
quantity: IC50
relation qualifier: =
observed value: 23.2
--
compound: COc1ccc(/C=C\c2cc(OC)c(OC)c(OC)c2)cc1NC(=O)Cn1cc(F)c(=O)[nH]c1=O [Compound Ia]
quantity: IC50
relation qualifier: =
observed value: 64.2
--
compound: CCOc1ccc(CCc2cc(OC)c(OC)c(OC)c2)cc1OC(=O)CCn1cc(F)c(=O)[nH]c1=O [Compound Io]
quantity: IC50
relation qualifier: =
observed value: 0.609

----------
- Test system: human lung cancer cell A549
- assay explanation: In vitro antitumor activity on tumor cell lines (CCK-8 method), A549
- Format: cell-based
- condition set: Homo sapiens, A549, 72 hours
pIC50: −log10 of the molar value.

molecule: COc1ccc(/C=C\c2cc(OC)c(OC)c(OC)c2)cc1OC(=O)CCn1cc(F)c(=O)[nH]c1=O [Compound Ik]
experimental system: human lung cancer cell A549
pIC50: > 9.52

molecule: COc1ccc(CCc2cc(OC)c(OC)c(OC)c2)cc1OC(=O)CCn1cc(F)c(=O)[nH]c1=O [Compound Il]
experimental system: human lung cancer cell A549
pIC50: > 9.52

molecule: CCOc1ccc(CCc2cc(OC)c(OC)c(OC)c2)cc1OC(=O)CCn1cc(F)c(=O)[nH]c1=O [Compound Io]
experimental system: human lung cancer cell A549
pIC50: 9.52

----------
Each entry below lists one item and its recorded LD50 at 14 days value.
- assay explanation: in vivo
- condition set: both, Kunming, mouse, po

smiles text: COc1ccc(/C=C\c2cc(OC)c(OC)c(OC)c2)cc1OC(=O)CCn1cc(F)c(=O)[nH]c1=O
LD50 at 14 days: > 1000 mg/kg
//
smiles text: COc1ccc(CCc2cc(OC)c(OC)c(OC)c2)cc1OC(=O)CCn1cc(F)c(=O)[nH]c1=O
LD50 at 14 days: > 1000 mg/kg

----------
- condition set: single intragastric administration, mice
quantity: LD50 (mg/kg)

compound: COc1ccc(CCc2cc(OC)c(OC)c(OC)c2)cc1O [Erianin, reference compound]
quantity: LD50
display unit: mg/kg
observed value: 2531
//
compound: COc1ccc(CCc2cc(OC)c(OC)c(OC)c2)cc1OC(=O)Cn1cc(F)c(=O)[nH]c1=O [Compound Ij]
quantity: LD50
display unit: mg/kg
observed value: 1015
//
compound: COc1ccc(/C=C\c2cc(OC)c(OC)c(OC)c2)cc1OC(=O)Cn1cc(F)c(=O)[nH]c1=O [Compound Ii]
quantity: LD50
display unit: mg/kg
observed value: 1059
//
compound: COc1ccc(CCc2cc(OC)c(OC)c(OC)c2)cc1OC(=O)CCn1cc(F)c(=O)[nH]c1=O [Compound Il]
quantity: LD50
display unit: mg/kg
observed value: 1228
//
compound: COc1ccc(/C=C\c2cc(OC)c(OC)c(OC)c2)cc1OC(=O)CCn1cc(F)c(=O)[nH]c1=O [Compound Ik]
quantity: LD50
display unit: mg/kg
observed value: 1185

----------
- System: human lung cancer cell A549
- assay explanation: In vitro antitumor activity on tumor cell lines (CCK-8 method), A549
- Assay type: cell-based
- condition set: Homo sapiens, A549, 72 hours
pIC50: −log10 of the molar value.

molecule: COc1ccc(CCc2cc(OC)c(OC)c(OC)c2)cc1NC(=O)Cn1cc(F)c(=O)[nH]c1=O
relation qualifier: >
pIC50: 6.72
--
molecule: CCOc1ccc(CCc2cc(OC)c(OC)c(OC)c2)cc1OC(=O)Cn1cc(F)c(=O)[nH]c1=O
relation qualifier: =
pIC50: 5.37
--
molecule: CCOc1ccc(CCc2cc(OC)c(OC)c(OC)c2)cc1NC(=O)Cn1cc(F)c(=O)[nH]c1=O
relation qualifier: =
pIC50: 4.22
--
molecule: O=c1[nH]cc(F)c(=O)[nH]1 [Compound 5-FU, 5-fluorouracil, reference compound]
relation qualifier: =
pIC50: 4.46
